System: EMT-6 mammary tumors
Experiment: Biodistribution in EMT-6 BALB/C mice
Format: in vivo
Details: 30 min
Assay Readout: ratio Tumor:heart
Write the number on its own, no unit after it.

The following molecules have reported results that may help.
COc1cc2c(cc1OC)CN(CCCCNC(=O)c1cc([76Br])cc(OC)c1OC)CC2 [[^76Br]6] : 2.48
COc1cc2c(cc1OC)CN(CCCCNC(=O)c1cc([125I])cc(OC)c1OC)CC2 [[^125I]6i] : 2.32
COc1cc2c(cc1OC)CN(CCCCNC(=O)c1cc(Br)cc(OC)c1O[11CH3])CC2 [[^11C]6] : 1.36
COc1cc2c(cc1OC)CN(CCNC(=O)c1cc([125I])ccc1OC)CC2 [[^125I]8i] : 1.44

Could you now look at the following molecule, please?
What the record says about COc1cc2c(cc1OC)CN(CCCCNC(=O)c1cc(C)cc(OC)c1O[11CH3])CC2 [[^11C]10] : ratio Tumor:heart is 2.53
